// reported Population Apoptotic (%) per item
# Test system: U2OS
# procedure_details: Multiplex assay against U2OS
# Format: toxicity, cell-based
# measurement_parameters: human, 24 h, 10 µM, compound concentration 10 uM, replicate 2
Give the value in % but do not write % after it.

Worked set:
structure | unit_tag | Population Apoptotic (%)
COc1ccc(NS(=O)(=O)c2sc3ccc(Cl)cc3c2C)cc1N1CCNCC1.Cl | % | 68
c1ccc2oc(-c3csc(C4CCN(Cc5nc6ncccc6[nH]5)CC4)n3)cc2c1 | % | 0
CCc1cc2c(cc1CC)CC(NC[C@H](O)c1ccc(O)c3[nH]c(=O)ccc13)C2 | % | 89
Cc1cn(-c2cc(NC(=O)c3ccc4c(c3)CN(c3cncnc3)C[C@@H]4C)cc(C(F)(F)F)c2)cn1 | % | 22
CC(C)N1CCC(C)(C)c2cc(C#Cc3ccc(C(=O)O)cc3)ccc21 | % | 100
CCCn1c(=O)c2[nH]c(C34CC5CC(CC3C5)C4)nc2n(CCC)c1=O | % | 56
Nc1ccc(C(=O)Nc2cccc(-c3nc(N4CCOCC4)c4oc5ncccc5c4n3)c2)cn1 | % | 84
N#Cc1cnc(Nc2cc(NC[C@H]3CNCCO3)c(C(F)(F)F)cn2)cn1 | % | 50

Provide Population Apoptotic (%), recorded with U2OS, of CC(C)(C)c1cnc(CSc2cnc(NC(=O)C3CCNCC3)s2)o1
78

Provide Population Apoptotic (%), recorded with U2OS, of Cl.Cl.NC1(c2ccc(-c3nc4ccn5c(=O)[nH]nc5c4cc3-c3ccccc3)cc2)CCC1
29

Recorded values, source ChEMBL document CHEMBL4689842.
